Provenance of the data: PubChem BioAssay (NCI)

tested on: KM12 colon; assay: NCI-60 one-dose screen, 48 h (100 = growth as untreated, 0 = no growth, -100 = all killed); conditions: 10 µM unless noted
Compounds without any hit were thinned out: in the full panel of roughly 83,000, 20% have a hit.
Label YES when growth is at or above 90%; anything below gets NO.

Q. Exam item: decide whether the reported growth for `O=[N+]([O-])c1ccc(N/N=C/c2ccccc2O)nc1` is at least 90%.
A. NO

Q. Exam item: decide whether the reported growth for COc1cc(C2CC(c3ccc(C)cc3)=NN2C=O)ccc1Oc1nc2c(c(=O)n(C)c(=O)n2C)n1C (stereo not given) is at least 90%.
A. NO

Q. Exam item: decide whether the reported growth for `Cn1cnc([N+](=O)[O-])c1S(=O)(=O)Oc1ccccc1` is at least 90%.
A. YES

Q. Exam item: decide whether the reported growth for `O=C(NCCN1CCCC1)n1cc(-c2ccncc2)c(-c2cc(O)cc(Cl)c2)n1` is at least 90%.
A. YES

Q. Exam item: decide whether the reported growth for `CCS(=O)(=O)Nc1cccc(Nc2c3cccc(C)c3nc3c(C)cccc23)c1OC` is at least 90%.
A. NO

Q. Exam item: decide whether the reported growth for `C(=Nc1ccc(-c2ccc(N=Cc3ccccc3)cc2)cc1)c1ccccc1` is at least 90%.
A. YES

Q. Exam item: decide whether the reported growth for CCCCCCCCCCCCC1CCC(=O)O1 (stereo not given) is at least 90%.
A. YES

Q. Exam item: decide whether the reported growth for `Cc1c2c(cc3c1[nH]c1ccccc13)C=NCC2` is at least 90%.
A. NO

Q. Exam item: decide whether the reported growth for CC1(C)OC2OC3C(CN)OC(c4ccccc4)OC3C2O1 (stereo not given) is at least 90%.
A. YES

Q. Exam item: decide whether the reported growth for `COc1cc2ncnc(Nc3ccc(S(=O)(=O)Nc4cc(C)on4)cc3)c2cc1OCCCN1CCN(c2ccc([N+](=O)[O-])cc2)CC1` is at least 90%.
A. YES

* * *

Kindly supply the reported growth values for the records listed here.
tested on: MALME-3M melanoma; assay: NCI-60 one-dose screen, 48 h (100 = growth as untreated, 0 = no growth, -100 = all killed); conditions: 10 µM unless noted
The panel holds about 83,000 compounds, 20% with a hit somewhere; the sample as a whole holds those more often.
Write the answer as a number in %, unit excluded.

Q. Value lookup for growth; key = `O=C(CC(=O)c1cccc(Cl)c1)c1cccc(Cl)c1`
A. 64.5

Q. Value lookup for growth; key = CCOC(=O)C1=C(C(=O)OCC)N(c2cc(OC)c(OC)c(OC)c2)C(N)=C(C#N)C1c1cc(=O)[nH]c2ccccc12 (stereo not given)
A. 104

Q. Value lookup for growth; key = COc1cc2c(c(OC)c1O)C(=O)C(OC)C(c1ccc(O)c(O)c1)O2 (stereo not given)
A. 52.2

Q. Value lookup for growth; key = CCCCc1nc(Cl)c(C2CC(c3ccc(S(N)(=O)=O)cc3)=NN2c2ccc(C#N)cc2)[nH]1 (stereo not given)
A. 105

Q. Value lookup for growth; key = `COc1ccc2c(c1)sc1nc(-c3ccccc3)c(-c3cccc4ccccc34)n12`
A. 51.5

Q. Value lookup for growth; key = `CCOCCNc1ccc(S(=O)(=O)c2ccc(N)cc2)cc1N`
A. 109

Q. Value lookup for growth; key = `CC(=O)Oc1ccccc1C(=O)Nc1ncc([N+](=O)[O-])s1`
A. -10.6

Q. Value lookup for growth; key = `CCN(CC)c1ccc2c(cc1=O)[C@@H](NC(C)=O)CCc1cc(OC)c(OC)c(OC)c1-2`
A. 99

Q. Value lookup for growth; key = `CCCCCCCCCCCC1=NC(C)(C)CN1C(C)C`
A. 59.8

Q. Value lookup for growth; key = CC1=CC(=O)OC1C/C=C(\C)CCC1[C@@]2(C)CCC[C@@](C)(C(=O)O)C2CC[C@@]1(C)O (stereo not given in full)
A. 58.4

* * *

tested on: HCT-116 colon; test: NCI-60 one-dose screen, 48 h; details: 10 µM unless noted
Compounds without any hit were thinned out: in the full panel of roughly 83,000, 20% have a hit. Active and inactive are the calls of the source. Rule for the calls: active = growth percent below 10; inactive = the rest.
Please reply with one of these outcomes: active, inactive

Q. Hi team, can someone confirm the assay call for `C=C1C(=O)O[C@H]2[C@H]1CC/C(COC(=O)NCc1cn(C)c3ccccc13)=C\CC[C@@]1(C)O[C@@H]21` ?
A. active

Q. Hi team, can someone confirm the assay call for `CCN(CC)CCNC(=O)n1cc(-c2ccncc2)c(-c2cc(Cl)cc(OC)c2)n1` ?
A. inactive

Q. Hi team, can someone confirm the assay call for COc1ccc(C2NC(=O)c3cc4c(cc3N2)OCO4)cc1 (stereo not given) ?
A. inactive

Q. Hi team, can someone confirm the assay call for `CC(C)[C@@]12C[C@@H](OC(=O)[C@H]3CO3)[C@@](C)(O1)[C@@H]1CC[C@@H](C)[C@H]1[C@@H]2OC(=O)/C=C/c1ccccc1` ?
A. inactive

Q. Hi team, can someone confirm the assay call for `Cc1cc(O)c2cc3c(O)c(O)ccc3cc2c1` ?
A. inactive

* * *

tested on: OVCAR-8 ovarian; test: NCI-60 one-dose screen, 48 h; details: 10 µM unless noted
Compounds without any hit were thinned out: in the full panel of roughly 83,000, 20% have a hit. Calls of active or inactive are those of the source. The calls were made as follows: active = growth percent below 10; inactive = the rest.
Please reply with one of these outcomes: active, inactive

Q. Hi team, can someone confirm the assay call for CN1C(=O)N(C)C2C1NN=c1s/c(=C\c3ccc(Br)cc3)c(=O)n12 (stereo not given) ?
A. inactive

Q. Hi team, can someone confirm the assay call for `C=CCCCCOc1cccc(/C=C2\N=C3SCCCN3C2=O)c1` ?
A. inactive

Q. Hi team, can someone confirm the assay call for `O=C(CC(=O)C(F)(F)C(F)(F)C(F)(F)F)c1cc2ccccc2o1` ?
A. inactive

Q. Hi team, can someone confirm the assay call for `COc1cccc(-c2cc(-c3cccs3)c(C#N)c(=O)[nH]2)c1` ?
A. inactive

Q. Hi team, can someone confirm the assay call for CC(C)(C)[Si](C)(C)OC1[C@@H](O[Si](C)(C)C(C)(C)C)[C@@H](CNC(=O)NC(=O)NC(=O)CI)O[C@H]1n1cnc2c(NC(=O)Nc3ccccc3)ncnc21 (stereo not given in full) ?
A. active

Q. Hi team, can someone confirm the assay call for Cc1nc(N)nc2c1CCC(Nc1ccccc1)S2 (stereo not given) ?
A. inactive

Q. Hi team, can someone confirm the assay call for `Cc1ccccc1NC(=O)c1sc2nc3c(cc2c1N)C(=O)CCC3` ?
A. inactive

Q. Hi team, can someone confirm the assay call for `CC(C)(C)c1ccc(OC(=O)Nc2ccccc2)cc1` ?
A. inactive

Q. Hi team, can someone confirm the assay call for ClC1=NC(Cl)C(Cl)=N/C1=N\c1ncn[nH]1 (stereo not given) ?
A. active

Q. Hi team, can someone confirm the assay call for `O=C(c1ccc(OCCN2CCCCC2)cc1)c1c(-c2ccc(O)cc2)sc2cc(O)ccc12` ?
A. inactive

* * *

Kindly supply the reported growth values for the records listed here.
system: CCRF-CEM leukemia; assay: NCI-60 one-dose screen, 48 h (100 = growth as untreated, 0 = no growth, -100 = all killed); details: 10 µM unless noted
This is part of a sample that, as a whole, favours compounds with a hit. Of some 83,000 tested, about 20% had one in any assay.
Write the answer as a number in %, unit excluded.

Q. Value lookup for growth; key = `O/N=C/c1ccncc1`
A. 95.5

Q. Value lookup for growth; key = `COc1cc2ncnc(Nc3ccc(S(=O)(=O)Nc4cc(C)on4)cc3)c2cc1OCCCN1CCN(c2ccc([N+](=O)[O-])cc2)CC1`
A. 99.1

Q. Value lookup for growth; key = `CCOC(=O)c1ccc(NC(=O)CSC(N)=O)cc1`
A. 103

Q. Value lookup for growth; key = `Cc1[nH]c2ccccc2c1C1=CC(=O)C=CC1=O`
A. 28.4

Q. Value lookup for growth; key = `COc1cccc(N2CCN(c3ncnc4cc[nH]c34)CC2)c1`
A. 60.9

Q. Value lookup for growth; key = `CN(C)CCNC(=O)n1cc(-c2ccncc2)c(-c2cc(O)cc(Cl)c2)n1`
A. 88

Q. Value lookup for growth; key = `CS(=O)(=O)c1ccc(C(=O)N/N=C/c2ccccc2O)cc1`
A. 15.3

Q. Value lookup for growth; key = `O=c1oc2ccccc2cc1-c1cc(-c2ccc(-c3cc(-c4cc5ccccc5oc4=O)nc(-c4cc5ccccc5oc4=O)c3)cc2)cc(-c2cc3ccccc3oc2=O)n1`
A. 92.9

Q. Value lookup for growth; key = `O=[N+]([O-])c1ccc(N/N=C\c2ccc(O)cc2O)nc1`
A. 18.8

Q. Value lookup for growth; key = Oc1c(C(Nc2ccccc2Br)c2ccccc2)ccc2cccnc12 (stereo not given)
A. 17.3

* * *

test system: COLO 205 colon; assay: NCI-60 one-dose screen, 48 h (100 = growth as untreated, 0 = no growth, -100 = all killed); conditions: 10 µM unless noted
The panel holds about 83,000 compounds, 20% with a hit somewhere; the sample as a whole holds those more often.
Kindly supply the reported growth values for the records listed here.
Write the answer as a number in %, unit excluded.

Q. Value lookup for growth; key = `COc1cc2ccc(C(C)=O)cc2cc1OC`
A. 97.1

Q. Value lookup for growth; key = `C=C1C(=O)O[C@H]2[C@H]1CC/C(COC(=O)NCc1cccc(OC)c1)=C\CC[C@@]1(C)O[C@@H]21`
A. -71.3

Q. Value lookup for growth; key = `COc1ccc(-c2cc(-c3ccc(OC)cc3)c3sc(=O)[nH]c3n2)cc1`
A. 107

Q. Value lookup for growth; key = CCOC(=O)C(Cc1ccccc1)n1c(O)c(/C=N/c2ncc(Cc3ccc(Cl)cc3Cl)s2)sc1=S (configuration not stated)
A. -87

Q. Value lookup for growth; key = `COc1cc(OC)c(C(=O)/C=C/c2cccc(OC(C)=O)c2)cc1CC=C(C)C`
A. 111

Q. Value lookup for growth; key = CC1OC(n2c3ccccc3c3c4c(c5c6ccccc6[nH]c5c32)C(=O)N(CCN[C@H]2CCC[C@@H]2N)C4=O)CC(O)C1O (some centres not stated)
A. 11.5

Q. Value lookup for growth; key = `CCOC(=O)c1cnc(SCC)nc1SC#N`
A. 82.1

Q. Value lookup for growth; key = `CS(=O)(=O)c1ccc(Cl)c([N+](=O)[O-])c1`
A. 111

Q. Value lookup for growth; key = `CCC(=O)OCc1ccc(OC)cc1`
A. 113

Q. Value lookup for growth; key = COc1cccc(C2C(C#N)=C(N)Oc3cc4c(cc32)OCO4)c1 (configuration not stated)
A. -47.1

Q. Value lookup for growth; key = `COc1ccc(NC(=O)c2sc3c(=O)[nH]c(C(F)(F)F)nc3c2C)cc1`
A. 114

Q. Value lookup for growth; key = C=CCOC(=O)C1=C(C)NC2=C(C(=O)CCC2)C1c1ccc(F)cc1 (configuration not stated)
A. 103

Q. Value lookup for growth; key = `CCCCn1cnc2c(SCc3ccc([N+](=O)[O-])cc3)nc(N)nc21`
A. 105

Q. Value lookup for growth; key = `COC1(OC)C2(Cl)CCC1(Cl)C(Cl)=C2Cl`
A. 128

Q. Value lookup for growth; key = `CC(C)(c1ccccc1)c1cc(O)c(C(C)(C)c2ccccc2)cc1O`
A. 17

Q. Value lookup for growth; key = CC(=O)O[C@@H]1CC2C(C)(C)CCCC2(C)C2=C1C(=O)C(C(C)C)=CC2=O (some centres not stated)
A. -50.8

Q. Value lookup for growth; key = `CCOCCNc1ccc(S(=O)(=O)c2ccc(N)cc2)cc1N`
A. 110

Q. Value lookup for growth; key = CCSCC1CC(O)(c2ccccc2)C(c2ccccc2)C(c2ccc(F)cc2)O1 (configuration not stated)
A. -70.2

Q. Value lookup for growth; key = `CC(C)(C)c1ccc(C(=O)Nc2sc3cc(O)ccc3c2C(N)=O)cc1`
A. 57.2

Q. Value lookup for growth; key = `O=C(Nc1ccccc1)c1cc2ccccc2s1`
A. 95.1

Q. Value lookup for growth; key = `CNC(=O)c1c(NC(=O)c2cccc(C(F)(F)F)c2)sc2c1CCC(=O)C2`
A. -31.7

Q. Value lookup for growth; key = CCC1N=C(N)N=C(N)N1c1ccc(Cl)cc1 (configuration not stated)
A. 121
